test: in vitro; conditions: human, hela cells, % viability
Please go through the items and note down their viability at 28.5 h, 10 µM.
Give bare numbers, in %.

molecule: CC(C)n1c(CN2CCOCC2)nc2c1c(=O)n(C)c(=O)n2C
viability at 28.5 h, 10 µM, %: 83.7
//
molecule: Cc1ccccc1OCCSc1nc2ccccc2n1CCO
viability at 28.5 h, 10 µM, %: 98.1
//
molecule: COc1cc(Cl)cc(C2NC(=S)NC(c3ccccc3)=C2C(C)=O)c1OCC(=O)O (stereo not drawn)
viability at 28.5 h, 10 µM, %: 98.3
//
molecule: COc1ccc(OC)c(-n2c(C)cn3c4c(=O)[nH]c(=O)n(C)c4nc23)c1
viability at 28.5 h, 10 µM, %: 59.5
//
molecule: C[C@]12CN(Cc3cccs3)C[C@H]1NC(=O)c1ccccc1C2=O
viability at 28.5 h, 10 µM, %: 89.2
//
molecule: O=C(Cn1c(-c2cccs2)cc2cccnc21)N1CCCCC1
viability at 28.5 h, 10 µM, %: 98.1
//
molecule: O=C(O)c1ccccc1SC1CC(=O)N(CCc2ccccc2)C1=O (stereo not drawn)
viability at 28.5 h, 10 µM, %: 93.6
//
molecule: O=[N+]([O-])c1ccc(S(=O)(=O)N2CCN(S(=O)(=O)c3ccc(Cl)cc3)CC2)cc1
viability at 28.5 h, 10 µM, %: 118
//
molecule: FC(F)(F)c1ccc(CNc2nccnc2-c2cccs2)cc1
viability at 28.5 h, 10 µM, %: 98.6
//
molecule: COC(=O)C1=C(C(=O)OC)SC(=C2C(=S)C(C)(C)N(C(=O)c3ccc4ccccc4c3)c3cc(C)ccc32)S1
viability at 28.5 h, 10 µM, %: 116

Provide each entry's viability at 28.5 h, 10 µM from the list below.
1. CC(=O)c1ccc(NC(=O)COn2nnc3ccc([N+](=O)[O-])cc32)cc1
2. Cc1nn(-c2cccc(Br)c2)c(C)c1[C@@H]1C=C[C@@H](NS(C)(=O)=O)C1
3. CC(NC(=O)C1CCN(Cc2cccnc2)CC1)c1ccc(F)cc1 (stereo not drawn)
4. O=C(C1=C(O)C(=O)N(CCCn2ccnc2)C1c1ccncc1)c1ccc(F)cc1 (stereo not drawn)

1. 101
2. 86.3
3. 94.4
4. 93.7

====

test: in vitro; conditions: human, hela cells, % viability
reported.property: viability at 28.5 h, 10 µM (%)
Answers are plain numbers, in %.

compound: CCCCN(C(C)=O)c1c(CC)nc2ccc(C(=O)N(C)CCN(C)C)cn12
viability at 28.5 h, 10 µM (%): 91.7

Provide each entry's viability at 28.5 h, 10 µM from the list below.
1. COC(=O)COc1nccnc1-c1ccc(OC(F)(F)F)cc1
2. CN(C)c1cccc(-c2cncc(Nc3cccc(C(F)(F)F)c3)n2)c1

1: 90.4; 2: 100

====

test: in vitro; conditions: human, hela cells, % viability
reported.property: viability at 28.5 h, 10 µM (%)
Answers are plain numbers, in %.

Please review the following examples before continuing.
compound: c1ccc(N2CCN(c3cccc(-c4ccc5c(c4)OCO5)n3)CC2)nc1
unit.symbol: %
value: 104
--
compound: FC(F)(F)c1ccc(CN2CCN(c3nccnc3OCC3COc4ccccc4O3)CC2)cc1 (centres unmarked) [CBK082789T]
unit.symbol: %
value: 115
--
compound: O=C(Nc1ccccc1C(F)(F)F)N1CCN(c2ccccc2Cl)CC1
unit.symbol: %
value: 79.7
--
compound: O=C(CC1CCN(C(=O)CC2CCCCC2)CC1)NCc1ccccc1N1CCCC1
unit.symbol: %
value: 99.2
--
compound: CCOC(=O)c1[nH]c2ccccc2c1NS(=O)(=O)Cc1ccccc1[N+](=O)[O-]
unit.symbol: %
value: 94.7

Provide each entry's viability at 28.5 h, 10 µM from the list below.
1. O=C(CCN1C(=O)c2ccccc2C1=O)NC(=S)Nc1ccccc1
2. CC(C)CC(NC(=O)Cc1cccc(O)c1)c1ncnn1C (centres unmarked)
3. O=C(O)CCNS(=O)(=O)c1cccc(F)c1
4. COc1cccc(C(O)CN2CCC3(CC2)CC(O)c2cc(Cl)c(C)cc2O3)c1 (centres unmarked)

1. 108
2. 105
3. 115
4. 99.3
